# system: EGFR Del19/T790M/C797S (Homo sapiens, UniProt P00533, C797S/DEL746-750/T790M)
# Sequence (P00533 with tags, fused parts or gaps DEL746-750/T790M/C797S): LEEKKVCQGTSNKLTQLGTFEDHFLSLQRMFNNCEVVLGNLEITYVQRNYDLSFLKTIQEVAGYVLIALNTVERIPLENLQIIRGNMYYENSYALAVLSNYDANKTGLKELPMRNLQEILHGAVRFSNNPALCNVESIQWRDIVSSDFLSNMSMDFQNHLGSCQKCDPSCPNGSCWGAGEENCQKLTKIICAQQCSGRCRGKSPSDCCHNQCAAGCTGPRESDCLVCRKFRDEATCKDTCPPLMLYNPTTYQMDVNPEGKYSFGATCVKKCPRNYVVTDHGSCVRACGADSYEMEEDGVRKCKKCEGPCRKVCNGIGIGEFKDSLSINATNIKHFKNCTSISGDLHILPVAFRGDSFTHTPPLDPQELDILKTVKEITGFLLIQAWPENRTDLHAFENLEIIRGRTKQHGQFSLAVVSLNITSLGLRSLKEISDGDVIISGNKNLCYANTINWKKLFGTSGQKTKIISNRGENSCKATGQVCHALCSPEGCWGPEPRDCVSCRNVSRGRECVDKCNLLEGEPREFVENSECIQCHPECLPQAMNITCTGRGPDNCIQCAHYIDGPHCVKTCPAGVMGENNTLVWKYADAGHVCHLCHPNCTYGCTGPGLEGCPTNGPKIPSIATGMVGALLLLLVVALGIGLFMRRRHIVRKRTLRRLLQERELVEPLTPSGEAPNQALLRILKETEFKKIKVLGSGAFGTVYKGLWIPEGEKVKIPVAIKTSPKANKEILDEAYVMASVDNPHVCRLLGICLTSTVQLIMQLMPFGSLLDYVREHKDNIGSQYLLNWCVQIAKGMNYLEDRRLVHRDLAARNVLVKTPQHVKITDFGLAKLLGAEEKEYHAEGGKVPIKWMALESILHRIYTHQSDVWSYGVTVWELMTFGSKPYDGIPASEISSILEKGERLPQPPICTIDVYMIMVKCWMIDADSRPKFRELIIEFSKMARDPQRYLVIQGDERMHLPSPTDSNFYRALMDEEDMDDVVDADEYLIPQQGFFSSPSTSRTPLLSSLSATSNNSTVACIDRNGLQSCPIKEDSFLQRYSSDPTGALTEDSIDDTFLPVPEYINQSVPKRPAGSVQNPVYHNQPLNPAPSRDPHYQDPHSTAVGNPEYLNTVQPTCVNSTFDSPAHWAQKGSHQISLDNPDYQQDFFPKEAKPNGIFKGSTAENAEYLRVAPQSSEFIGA
# test-details: Biochemical EGFR kinase inhibition assay (Lance Ultra TR-FRET), triple mutant del19/T790M/C797S
# conditions: IC50 Del19/T790M/C797S (nM), 100 μM ATP
This section presents compounds with their documented IC50 values.
// units = nM; emit number, no label

Sample answers from the record:
Cn1cc(C#Cc2cnc(Nc3ccnc(-c4cnn(S(=O)(=O)C5CC5)c4)n3)cc2N2CCCC(CO)C2)cn1 (centres unmarked) | 1.9
CC1(CO)CCN(c2cc(Nc3ccnc(-c4cnn(S(=O)(=O)C5CC5)c4)n3)ncc2C#Cc2cnn(CC3CC3)c2)CC1 | 5.3
Cn1cc(C#Cc2cnc(Nc3ccnc(-c4cnn(S(=O)(=O)C5CC5)c4)n3)cc2N[C@H]2CC[C@@H](O)CC2)cn1 | 0.6
CC1(CO)CCN(c2cc(Nc3ccnc(-c4cnn(S(=O)(=O)C5CC5)c4)n3)ncc2C#CCC2(O)COC2)CC1 | 0.1
CC1(C#Cc2cnc(Nc3ccnc(-c4cnn(S(=O)(=O)C5CC5)c4)n3)cc2N2CCC(C)(CO)CC2)CCOCC1 | 1.9

IN: Fill blank: measured IC50 of the compound CC1(C)CN(c2cc(Nc3ccnc(-c4cnn(S(=O)(=O)C5CC5)c4)n3)ncc2C#Cc2ccsc2)CCC1O (centres unmarked) is ____.
OUT: 8.9

IN: Fill blank: measured IC50 of the compound O=S(=O)(C1CC1)n1cc(-c2nccc(Nc3cc(N4CCCC(O)C4)c(C#Cc4cnn(C5CCOCC5)c4)cn3)n2)cn1 (centres unmarked) is ____.
OUT: 0.7

IN: Fill blank: measured IC50 of the compound CC(C)(O)[C@H]1CC[C@@H](Nc2cc(Nc3ccnc(-c4cnn(S(=O)(=O)C5CC5)c4)n3)ncc2C#Cc2cnn(C(F)(F)F)c2)CC1 is ____.
OUT: 8

IN: Fill blank: measured IC50 of the compound CC1(CO)CCN(c2cc(Nc3ccnc(-c4cnn(S(=O)(=O)C5CC5)c4)n3)ncc2C#Cc2csc(CN3CCOCC3)n2)CC1 is ____.
OUT: 0.7

* * *

# system: EGFR Del19/C797S (Homo sapiens, UniProt P00533, C797S/DEL746-750)
# Sequence (P00533 with tags, fused parts or gaps DEL746-750/C797S): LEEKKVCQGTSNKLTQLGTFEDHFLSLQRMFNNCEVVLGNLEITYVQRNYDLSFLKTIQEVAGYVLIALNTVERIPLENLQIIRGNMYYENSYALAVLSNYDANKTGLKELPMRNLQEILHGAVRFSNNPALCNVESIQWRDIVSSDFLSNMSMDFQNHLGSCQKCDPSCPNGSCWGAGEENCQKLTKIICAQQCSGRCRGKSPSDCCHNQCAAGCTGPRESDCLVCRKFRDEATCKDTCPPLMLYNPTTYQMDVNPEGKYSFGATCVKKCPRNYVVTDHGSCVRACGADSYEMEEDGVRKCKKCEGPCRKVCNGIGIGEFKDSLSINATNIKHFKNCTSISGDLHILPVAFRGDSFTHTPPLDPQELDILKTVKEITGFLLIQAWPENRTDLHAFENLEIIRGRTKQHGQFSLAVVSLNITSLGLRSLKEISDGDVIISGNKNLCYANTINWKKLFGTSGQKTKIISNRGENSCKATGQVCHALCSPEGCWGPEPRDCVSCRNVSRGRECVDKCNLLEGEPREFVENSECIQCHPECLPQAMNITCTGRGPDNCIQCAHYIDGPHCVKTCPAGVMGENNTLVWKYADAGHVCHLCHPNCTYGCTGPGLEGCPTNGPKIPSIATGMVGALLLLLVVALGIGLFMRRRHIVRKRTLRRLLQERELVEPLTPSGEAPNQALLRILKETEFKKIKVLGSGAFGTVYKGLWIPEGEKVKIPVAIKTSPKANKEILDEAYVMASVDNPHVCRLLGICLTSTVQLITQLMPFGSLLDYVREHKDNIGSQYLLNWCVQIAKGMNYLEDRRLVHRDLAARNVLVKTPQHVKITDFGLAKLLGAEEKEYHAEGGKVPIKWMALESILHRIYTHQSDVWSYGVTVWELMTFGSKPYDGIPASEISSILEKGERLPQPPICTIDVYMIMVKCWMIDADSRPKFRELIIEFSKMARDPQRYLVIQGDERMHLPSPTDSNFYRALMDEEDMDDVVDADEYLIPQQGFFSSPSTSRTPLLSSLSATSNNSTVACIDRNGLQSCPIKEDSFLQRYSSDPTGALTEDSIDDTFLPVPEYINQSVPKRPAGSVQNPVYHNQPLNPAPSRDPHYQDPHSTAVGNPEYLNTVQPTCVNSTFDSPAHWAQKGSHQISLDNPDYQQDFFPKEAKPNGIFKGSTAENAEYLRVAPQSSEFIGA
# test-details: Biochemical EGFR kinase inhibition assay (Lance Ultra TR-FRET), double mutant del19/C797S
# conditions: IC50 Del19/C797S (nM), 100 μM ATP
property-label: log10 of IC50 (log10 of the value in nM)
Reminder: these figures are log10 of reported IC50, in nM before transformation.

Sample answers from the record:
CC1(CO)CCN(c2cc(Nc3ccnc(-c4cnn(S(=O)(=O)C5CC5)c4)n3)ncc2C#Cc2cnn(CC3CCOCC3)c2)CC1 | 0.48
CC(=O)N1CCC(n2cc(C#Cc3cnc(Nc4ccnc(-c5cnn(S(=O)(=O)C6CC6)c5)n4)cc3N3CCC(=O)CC3)cn2)CC1 | 1.47
CC1(O)CCN(c2cc(Nc3ccnc(-c4cnn(S(=O)(=O)C5CC5)c4)n3)ncc2C#Cc2ncc(CN3CCOCC3)cn2)CC1 | 0.11
Cn1cc(C#Cc2cnc(Nc3ccnc(-c4cnn(S(=O)(=O)C5CC5)c4)n3)cc2N[C@H]2CC[C@@H](O)CC2)cn1 | 0.45
CN(CCO)c1cc(Nc2ccnc(-c3cnn(S(=O)(=O)C4CC4)c3)n2)ncc1C#Cc1cnn(CCF)c1 | 2.67
CN(C)CCCn1cc(C#Cc2cnc(Nc3ccnc(-c4cnn(S(=O)(=O)C5CC5)c4)n3)cc2N2CCC3(CC2)CC(C)(O)C3)cn1 | -0.40

IN: Fill blank: measured log10 of IC50 of the compound Cn1cc(C#Cc2cnc(Nc3ccnc(-c4cnn(S(=O)(=O)C5CC5)c4)n3)cc2N2CC(C(C)(C)O)C2)cn1 is ____.
OUT: 1.44

IN: Fill blank: measured log10 of IC50 of the compound CC(C)(CO)CNc1cc(Nc2ccnc(-c3cnn(S(=O)(=O)C4CC4)c3)n2)ncc1C#Cc1cnn(CCF)c1 is ____.
OUT: 1.69

IN: Fill blank: measured log10 of IC50 of the compound O=S(=O)(C1CC1)n1cc(-c2nccc(Nc3cc(N[C@H]4CCC[C@H](O)C4)c(C#Cc4ccc(CN5CCOCC5)cc4)cn3)n2)cn1 is ____.
OUT: 1.58

IN: Fill blank: measured log10 of IC50 of the compound CC1OCCC1C#Cc1cnc(Nc2ccnc(-c3cnn(S(=O)(=O)C4CC4)c3)n2)cc1NC1CCC(CO)CC1 (stereo not shown) is ____.
OUT: 0.58
